Assay: chemical genetic growth profiling, strain panel (AID 1159580);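 further: tested at 20 µM; growth read once vehicle control cultures reached saturation at 30 °C; 1 = growth at the plate median or of vehicle wells; lower values mean less growth of the strain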
Conditions: S. cerevisiae deletion strains, growth OD, strain NNK1, hits give low values
The campaign covered roughly 5,500 compounds. About 2,000 (36%) were called active. Inconclusive results (about 18%) are left out. The list shows a part of the results.
property name: normalized growth

In [3]: df
Out[3]:
                                    compound  measured_result
 0  CC1(C)c2ccccc2N(CCC(N)=O)C12C=Cc1c(ccc3ccccc13)O2 (configuration not stated)            0.944
 1  O=S(=O)(Nc1ccc(Oc2ccc(OC(F)(F)F)cc2)cc1)c1cccc(Cl)c1            0.989
 2  O=C1/C(=C/c2ccc(C(F)(F)F)cc2)COc2ccccc21             0.91
 3                 Oc1ccc(N=Nc2ccccn2)c(O)c1           0.0965
 4  Cc1ccc(S(=O)(=O)Nc2ccc(Oc3ccc(F)cc3)cc2)cc1            0.969
 5  CC1C/C(=N/Nc2ccc(Br)cc2)c2cc(Cl)ccc2S1 (configuration not stated)            0.545
 6  CS(=O)(=O)/C(C#N)=C/c1ccccc1OCc1c(Cl)cccc1Cl            0.966
 7    COc1ccc(C(=O)NCc2csc3ccc(Cl)cc23)cc1OC             0.97
 8     COc1ccc(OC)c(-c2ccn[nH]2)c1OCc1ccccc1            0.994
 9   COc1cc(CC/C(C)=N/O)ccc1OCc1ccc(Cl)cc1Cl            0.976
10  O=[N+]([O-])c1ccc(-c2csc(Nc3ccncc3)n2)cc1            0.996
11  COc1cc(CC/C(C)=N\O)ccc1OCc1ccc(Cl)c(Cl)c1            0.953

###

Assay: chemical genetic growth profiling, strain panel (AID 1159580);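 further: tested at 20 µM; growth read once vehicle control cultures reached saturation at 30 °C; 1 = growth at the plate median or of vehicle wells; lower values mean less growth of the strain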
Conditions: S. cerevisiae deletion strains, growth OD, locus YPR163C, strain tif3, hits give low values
Screen size: about 5,500 compounds; about 2,000 (36%) were called active. Roughly 18% stayed inconclusive and do not appear here. Some of the results follow.
Recorded normalized growth for the following compounds
property name: normalized growth

compound	property name	measured result
S=P(N1CC1)(N1CC1)N1CC1	normalized growth	1
COc1ccc(C(=O)CC(=O)c2ccc(C(C)(C)C)cc2)cc1	normalized growth	1.01
C[C@@H](N)[C@@H](O)c1ccccc1	normalized growth	0.971
COc1ccc(C(=O)N2CCCC2=O)cc1	normalized growth	1
Cc1nc2sccn2c(=O)c1CCN1CCC(=C(c2ccc(F)cc2)c2ccc(F)cc2)CC1	normalized growth	0.722
CC1CC2C3CC(F)C4=CC(=O)C=CC4(C)C3(F)C(O)CC2(C)C1C(=O)COC(=O)C(C)(C)C (stereo not given)	normalized growth	1.03
NS(=O)(=O)c1cc2c(cc1Cl)NC(C1CC3C=CC1C3)NS2(=O)=O (stereo not given)	normalized growth	0.997
CCCC(C(=O)OCCN(CC)CC)(c1ccccc1)c1ccccc1	normalized growth	0.995
CCCCCC1C(=O)CCC1CC(=O)O (stereo not given)	normalized growth	0.978
C[C@@H]1CC2C3C[C@H](F)C4=CC(=O)C=C[C@]4(C)[C@@]3(F)[C@@H](O)C[C@]2(C)[C@@]1(O)C(=O)COC(=O)C(C)(C)C (stereo not given in full)	normalized growth	1
CC1(C)C(=O)C=C[C@@]2(C)C1CC(=O)[C@@]1(C)C3=CC(=O)O[C@@H](c4ccoc4)[C@]3(C)CCC12 (stereo not given in full)	normalized growth	1
O=c1cc(-c2ccccc2)oc2c(O)c(O)ccc12	normalized growth	0.987
CCCCSP(=O)(SCCCC)SCCCC	normalized growth	1.01
COc1cc2c(cc1-c1cc3cc4ccoc4cc3oc1=O)OCO2	normalized growth	0.969
C=C1C2CC[C@@]3(C)[C@H](c4ccoc4)OC(=O)C[C@]13O[C@H]1CC(O)C(C)(C)C(CC(=O)OC)[C@@]21C (stereo not given in full)	normalized growth	1.02
COc1cc(OC)c(OC)cc1C=O	normalized growth	0.981
O=C(O)CCCOc1ccc(Cl)cc1Cl	normalized growth	1.02
C=C1[C@H]2CC[C@@]3(C)[C@H](c4ccoc4)OC(=O)C[C@]13O[C@H]1C[C@H](O)C(C)(C)[C@H](CC(=O)OC)[C@]12C	normalized growth	1.01
C=C1C2CCC3(C)C(c4ccoc4)OC(=O)CC13OC1CC(OC(C)=O)C(C)(C)C(CC(=O)OC)C12C (stereo not given)	normalized growth	0.991
C=C1C2=CC(=O)O[C@@H](c3ccoc3)[C@]2(C)CCC1[C@@]1(C)C=CC(=O)C(C)(C)[C@@H]1CC(=O)OC (stereo not given in full)	normalized growth	0.991
O=c1cc(-c2ccccc2)oc2cc(O)c(O)c(O)c12	normalized growth	0.659
N[C@H](Cc1cc(I)c(Oc2ccc(O)c(I)c2)c(I)c1)C(=O)O	normalized growth	0.909
NCC(CC(=O)O)c1ccc(Cl)cc1 (stereo not given)	normalized growth	0.99
Cc1cc(C)cc(OCC2CNC(=O)O2)c1 (stereo not given)	normalized growth	1.01
CCN(CCCc1ccccc1)CCCc1ccccc1	normalized growth	1.05
CCCC(CCC)C(=O)O	normalized growth	0.959
Cc1cc(=O)oc2c(O)c(O)ccc12	normalized growth	0.99
CCCCCC1C(=O)CCC1CC(=O)OC (stereo not given)	normalized growth	0.963
C[C@@H]1O[C@@H](O[C@H]2C[C@@H](O)[C@]3(CO)C4C(CC[C@]3(O)C2)[C@@]2(O)CC[C@H](C3=CC(=O)OC3)[C@@]2(C)C[C@H]4O)[C@H](O)[C@H](O)[C@H]1O (stereo not given in full)	normalized growth	0.988
NNCCc1ccccc1	normalized growth	0.989
OC1=Cc2c(O)cc(O)cc2OC1(O)c1ccc(O)c(O)c1 (stereo not given)	normalized growth	0.999
CC(=O)Nc1ccccc1	normalized growth	0.996
NC(N)=O	normalized growth	0.996
Cc1nc2ccccn2c(=O)c1CCN1CCC(C(=O)c2ccc(F)cc2)CC1	normalized growth	0.992
CCN(CC)CCOC(=O)C(c1ccccc1)c1ccccc1	normalized growth	0.996
O=c1cc(-c2ccccc2)oc2cc(O)cc(O)c12	normalized growth	0.883
COC(=O)CCCOc1ccc(Cl)cc1Cl	normalized growth	1
COC(=O)c1c(C)cc(OC(=O)c2c(C)cc(O)c(C=O)c2O)c(C)c1O	normalized growth	1.01
COC(=O)c1c(C)cc(OC(=O)c2c(C)c(Cl)c(O)c(C=O)c2O)c(C)c1O	normalized growth	0.977
CN(C)CCOC(=O)COc1ccc(Cl)cc1	normalized growth	1.06
C=C1C2CC[C@@]3(C)[C@H](c4ccoc4)OC(=O)C[C@]13O[C@H]1CC(=O)C(C)(C)C(CC(=O)OC)[C@@]21C (stereo not given in full)	normalized growth	1.01
NC(Cc1ccc(F)cc1)C(=O)O (stereo not given)	normalized growth	1.04
c1ccc2c(c1)CN1CCCC1=N2	normalized growth	0.997
COc1c(Cl)ccc(Cl)c1C(=O)O	normalized growth	1.01
O=C(O)Cc1cc(I)c(Oc2cc(I)c(O)c(I)c2)c(I)c1	normalized growth	0.719
